All figures here come from patent US6500417.

- Measured On: IL-3 receptor (human, UniProt P26951 19-378; P32927 17-897)
- Sequence (P26951 19-378, chain 1 of 2): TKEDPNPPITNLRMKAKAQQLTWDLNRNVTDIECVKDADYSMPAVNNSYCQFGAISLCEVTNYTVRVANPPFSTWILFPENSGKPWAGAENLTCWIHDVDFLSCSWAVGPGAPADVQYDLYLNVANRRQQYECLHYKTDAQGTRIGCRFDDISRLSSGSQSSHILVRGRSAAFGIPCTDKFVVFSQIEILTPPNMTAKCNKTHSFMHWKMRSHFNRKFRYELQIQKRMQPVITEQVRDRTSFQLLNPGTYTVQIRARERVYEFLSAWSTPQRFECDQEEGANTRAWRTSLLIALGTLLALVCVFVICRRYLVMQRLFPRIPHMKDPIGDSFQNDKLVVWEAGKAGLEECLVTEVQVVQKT
- Sequence (P32927 17-897, chain 2 of 2): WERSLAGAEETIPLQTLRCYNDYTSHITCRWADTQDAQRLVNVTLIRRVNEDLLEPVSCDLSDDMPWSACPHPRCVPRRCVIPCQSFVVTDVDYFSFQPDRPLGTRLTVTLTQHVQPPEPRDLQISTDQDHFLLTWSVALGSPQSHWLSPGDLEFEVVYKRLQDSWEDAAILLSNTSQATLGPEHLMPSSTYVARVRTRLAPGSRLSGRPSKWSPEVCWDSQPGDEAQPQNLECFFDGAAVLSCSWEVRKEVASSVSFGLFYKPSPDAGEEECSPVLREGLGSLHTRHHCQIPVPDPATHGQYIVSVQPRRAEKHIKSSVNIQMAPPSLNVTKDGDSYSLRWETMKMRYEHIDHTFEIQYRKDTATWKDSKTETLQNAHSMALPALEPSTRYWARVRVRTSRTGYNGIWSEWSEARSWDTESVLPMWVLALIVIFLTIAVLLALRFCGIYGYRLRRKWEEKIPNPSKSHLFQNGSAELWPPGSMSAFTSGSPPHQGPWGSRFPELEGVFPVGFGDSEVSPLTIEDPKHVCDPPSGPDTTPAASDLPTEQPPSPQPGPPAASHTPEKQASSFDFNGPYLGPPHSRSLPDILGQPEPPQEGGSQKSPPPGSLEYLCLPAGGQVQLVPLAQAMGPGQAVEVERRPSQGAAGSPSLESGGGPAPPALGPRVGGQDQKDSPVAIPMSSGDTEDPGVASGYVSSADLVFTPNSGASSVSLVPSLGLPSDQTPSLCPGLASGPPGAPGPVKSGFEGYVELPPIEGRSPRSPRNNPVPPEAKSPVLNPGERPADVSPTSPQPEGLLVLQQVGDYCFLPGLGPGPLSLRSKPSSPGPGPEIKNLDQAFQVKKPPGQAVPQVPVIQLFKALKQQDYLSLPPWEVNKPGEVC
- Test Description: cell-based or functional assay
Assign REL. SPEC. BIOLOGICAL ACTIVITY (DNA synthesis of AML193 cells) to each entry below.

Field request: REL. SPEC. BIOLOGICAL ACTIVITY (DNA synthesis of AML193 cells) | item: hIL-3 deletion mutant 937 (deletion 89-95) (ligand, not shown: heterologous N-terminal leader of the E. coli fusion (pGB/IL-336: 12 aa; pGB/IL-339: 15 aa)) APMTQTTPLKTSWVNCSNMIDEIITHLKQPPLPLLDFNNLNGEDQDILMENNLRRPNLEAFNRAVKSLQNASAIESILKNLLPCLPLAPIHIKDGDWNEFRRKLTFYLKTLENAQAQQTTLSLAIF 1e-05 relative to reference IL-3

Field request: REL. SPEC. BIOLOGICAL ACTIVITY (DNA synthesis of AML193 cells) | item: hIL-3 substitution mutant 1488 (Lys79→Glu79) (ligand, also called 79K → E; not shown: heterologous N-terminal leader of the E. coli fusion (pGB/IL-336: 12 aa; pGB/IL-339: 15 aa)) APMTQTTPLKTSWVNCSNMIDEIITHLKQPPLPLLDFNNLNGEDQDILMENNLRRPNLEAFNRAVKSLQNASAIESILENLLPCLPLATAAPTRHPIHIKDGDWNEFRRKLTFYLKTLENAQAQQTTLSLAIF 0.0019 relative to reference IL-3
